target-under-test: T1, cynomolgus IL-18BP (cynomolgus monkey)
T1 construct: Generated in-house; also called cyIL-18BP; cyno IL-18BP
T1 chain: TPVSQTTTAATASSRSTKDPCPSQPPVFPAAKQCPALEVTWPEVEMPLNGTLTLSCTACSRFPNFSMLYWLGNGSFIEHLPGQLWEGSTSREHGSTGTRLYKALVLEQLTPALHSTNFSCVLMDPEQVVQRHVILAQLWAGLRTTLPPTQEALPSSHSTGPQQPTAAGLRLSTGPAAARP
assay-method-text: BLI (Octet), mAb on AHC biosensor
measured-attribute: Kd (pM)
Numbers only here, please. The scale is pM.

Challenge: Please look up its Kd: SA04a (antibody, human IgG1, V domains shown, murine variable regions on human IgG1 kappa constant regions) VH: QIQFVQSGPEVKTPGETVKISCKASVYTFTEYPMHWLKQAPGEDFEWMGWIHTYSGEPTYADDFKGRFAFSLETSASTAYLQINNLKTEDTATYFCARGRYYGALDYWGQGTALT VL: DIQMTQTPSSLSASLGDRVTISCRASQDISNYLNWYQQKPDGTVKLLIYYTSRLHSGVPSRFSGSGSGTDYSLTISNLEQEDVATYFCQHGNTLPRTFGGGTKLEIK
Response given: 670

Challenge: Please look up its Kd: SA35a (antibody, human IgG1, V domains shown, murine variable regions on human IgG1 kappa constant regions) VH: QVQLQQSGAELVRPGVSVKISCKGSGYTFTDYPMHWVKQSHAKSLEWIGVISTYYGDASYNQKFKGKATMTVDKSSSTAYMELARLTSEDSAIYYCARWRGSFDYWGQGTTLTVSS VL: ENVLTQSPAIMSASPGEKVTMTCRASSSVSSSYLHWYQQKSGASPKLWIYSTSNLASGVPARFSGSGSGTSYSLTISSVEAEDAATYYCQQYSGYHTFGGGTKLEIK
Response given: 13000

Challenge: Please look up its Kd: SA44a (antibody, human IgG1, V domains shown, murine variable regions on human IgG1 kappa constant regions) VH: DVQLQESGPDLVKPSQSLSLTCTVTGYSITSDYNCHWIRQFPGNKLEWMGYIHYSGSTNYNPSLKSRISITRDTSKNQFFLQLNSVTAEDTATYYCARNYGSIYVNYFDYWGQGTTLTVSS VL: QIVLTQSPAIMSASPGEKVTISCSASSSVSYMYWYQQEPGSSPKPWIYRTSNLASGVPPRFSGSGSGTSYSLTISSMEAEDAATYFCQQYHSYPTFGGGTKLEIK
Response given: 670

Origin of values: patent US20250368745A1
